For each entry below, report its viability, T/C value.
Test system: 695427-040-R-J1-PDC complex spheroid viability
Assay: Anticancer human tumor 695427-040-R-J1-PDC patient-derived colon adenocarcinoma cell line growth inhibition [POLQ]
Settings: second compound 0.316 µM; first compound 0.1 µM; hits give low values
One number for each entry, in %.

Example results:
COc1cc(C2c3cc4c(cc3C(OC3OC5COC(C)OC5C(O)C3O)C3COC(=O)C23)OCO4)cc(OC)c1O (stereo not drawn) + Nc1ccc(C#CCN(C(=O)Cc2ncc(C(F)(F)F)cc2C(F)(F)F)c2ccc(F)cc2)nn1 :: 90.5
O=c1[nH]cc(F)c(=O)[nH]1 + Nc1ccc(C#CCN(C(=O)Cc2ncc(C(F)(F)F)cc2C(F)(F)F)c2ccc(F)cc2)nn1 :: 105

Below: the item to evaluate.
Enquiry: Notebook entry, 695427-040-R-J1-PDC complex spheroid viability assay: viability, T/C of COc1cccc2c1C(=O)c1c(O)c3c(c(O)c1C2=O)CC(O)(C(=O)CO)CC3OC1CC(N)C(O)C(C)O1 (stereo not drawn) + Nc1ccc(C#CCN(C(=O)Cc2ncc(C(F)(F)F)cc2C(F)(F)F)c2ccc(F)cc2)nn1 = ?
Return: 99.8

---

Tested on: 695427-040-R-J1-PDC complex spheroid viability
Assay: Anticancer human tumor 695427-040-R-J1-PDC cell line growth inhibition [POLQ];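 also: spheroids exposed to compounds for seven days; 100% = DMSO vehicle control viability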
Conditions: second compound 0.1 µM; first compound 0.316 µM; hits give low values
parameter: viability, T/C (%)
Give bare numbers, in %.

Please review the following examples before continuing.
O=C(Nc1ccc(O)c(NS(=O)(=O)c2ccc(F)cc2)c1)c1ccc(-c2ccccc2)cc1 + Nc1ccc(C#CCN(C(=O)Cc2ncc(C(F)(F)F)cc2C(F)(F)F)c2ccc(F)cc2)nn1 :: 92.8
CC1COCCN1c1cc(C2(O)CC3CCC(C2)O3)c2cnn(-c3ccn[nH]3)c2n1 (configuration not stated) + COC1C(OC(N)=O)C(O)C(Oc2ccc3c(O)c(NC(=O)c4ccc(O)c(CC=C(C)C)c4)c(=O)oc3c2C)OC1(C)C :: 79.1
CNCc1ccc(-c2[nH]c3cc(F)cc4c3c2CCNC4=O)cc1 + Nc1ccc(C#CCN(C(=O)Cc2ncc(C(F)(F)F)cc2C(F)(F)F)c2ccc(F)cc2)nn1 :: 104

Quick one: give me viability, T/C for each item below, same order please.
1. COc1cc(C2c3cc4c(cc3C(OC3OC5COC(C)OC5C(O)C3O)C3COC(=O)C23)OCO4)cc(OC)c1O (configuration not stated) + Nc1ccc(C#CCN(C(=O)Cc2ncc(C(F)(F)F)cc2C(F)(F)F)c2ccc(F)cc2)nn1
2. Nc1ccn(C2OC(CO)C(O)C2(F)F)c(=O)n1 (configuration not stated) + Nc1ccc(C#CCN(C(=O)Cc2ncc(C(F)(F)F)cc2C(F)(F)F)c2ccc(F)cc2)nn1
3. CC1COCCN1c1cc(-c2ccnn2C)c2ccnc(-c3ccn[nH]3)c2n1 (configuration not stated) + COC1C(OC(N)=O)C(O)C(Oc2ccc3c(O)c(NC(=O)c4ccc(O)c(CC=C(C)C)c4)c(=O)oc3c2C)OC1(C)C
4. CCc1cc2c(N3CCc4c(cc(Cn5ccnc5)cc4-c4cn(C)nc4C(F)(F)F)C3=O)ccnc2c(OC)n1 + COC1C(OC(N)=O)C(O)C(Oc2ccc3c(O)c(NC(=O)c4ccc(O)c(CC=C(C)C)c4)c(=O)oc3c2C)OC1(C)C

Return:
1: 100; 2: 90.8; 3: 64.2; 4: 115

---

Test system: 695427-040-R-J1-PDC complex spheroid viability
Assay: Anticancer human tumor 695427-040-R-J1-PDC cell line growth inhibition [POLQ];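 also: spheroids exposed to compounds for seven days; 100% = DMSO vehicle control viability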
Conditions: second compound 0.1 µM; first compound 0.316 µM; hits give low values
parameter: viability, T/C (%)
Numbers only, in %.

Worked cases, viability, T/C given:
O=C(c1cc(Cc2n[nH]c(=O)c3ccccc23)ccc1F)N1CCN(C(=O)C2CC2)CC1 + Cc1cccc(N(C)C(=O)C2C(O)CCN2c2nc(C)cc(C(F)(F)F)c2C#N)c1 :: 97.9
C=CCn1c(=O)c2cnc(Nc3ccc(N4CCN(C)CC4)cc3)nc2n1-c1cccc(C(C)(C)O)n1 + COC1C(OC(N)=O)C(O)C(Oc2ccc3c(O)c(NC(=O)c4ccc(O)c(CC=C(C)C)c4)c(=O)oc3c2C)OC1(C)C :: 98.4
COc1cc2cc(C(=O)CCC(=O)O)sc2cc1OC + Nc1ccc(C#CCN(C(=O)Cc2ncc(C(F)(F)F)cc2C(F)(F)F)c2ccc(F)cc2)nn1 :: 103
CC1COCCN1c1cc(C2(O)CC3CCC(C2)O3)c2cnn(-c3ccn[nH]3)c2n1 (stereo not drawn) + Nc1ccc(C#CCN(C(=O)Cc2ncc(C(F)(F)F)cc2C(F)(F)F)c2ccc(F)cc2)nn1 :: 88

Please give viability, T/C, item by item, for the list that follows.
1. COc1cccc(OCCCN)c1-c1cc(Nc2cnc(C#N)cn2)n[nH]1 + COC1C(OC(N)=O)C(O)C(Oc2ccc3c(O)c(NC(=O)c4ccc(O)c(CC=C(C)C)c4)c(=O)oc3c2C)OC1(C)C
2. COc1ccc([C@@H](O)c2cc(-c3ncnc4cc(N5CCOCC5)ccc34)c(F)cc2Cl)nn1 + Cc1cccc(N(C)C(=O)C2C(O)CCN2c2nc(C)cc(C(F)(F)F)c2C#N)c1
3. CC(C)n1c(=O)n(C)c2cnc3cc(F)c(-c4ccc(OCCCN5CCCCC5)nc4)cc3c21 + COC1C(OC(N)=O)C(O)C(Oc2ccc3c(O)c(NC(=O)c4ccc(O)c(CC=C(C)C)c4)c(=O)oc3c2C)OC1(C)C
4. CC1COCCN1c1cc(C2(O)CC3CCC(C2)O3)c2cnn(-c3ccn[nH]3)c2n1 (stereo not drawn) + Cc1cccc(N(C)C(=O)C2C(O)CCN2c2nc(C)cc(C(F)(F)F)c2C#N)c1

Return:
[56, 97.4, 112, 85]

---

System: 695427-040-R-J1-PDC complex spheroid viability
Test: Anticancer human tumor 695427-040-R-J1-PDC cell line growth inhibition [POLQ];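 also: spheroids exposed to compounds for seven days; 100% = DMSO vehicle control viability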
Settings: second compound 0.0316 µM; first compound 3.16 µM; hits give low values
Protocol: Multicellular complex tumor spheroid response to Polymerase (POL) inhibitors (novobiocin, ART-558, RP6685) in combination with a variety of drugs and investigational agents in selected tumor cell lines The POL inhibitors (novobiocin, ART-558, and RP6685) were evaluated both individually and in combination with standard of care and investigational anticancer small molecules within a complex spheroid model of solid tumors. . […]
parameter: viability, T/C

COc1cc2cc(C(=O)CCC(=O)O)sc2cc1OC + COC1C(OC(N)=O)C(O)C(Oc2ccc3c(O)c(NC(=O)c4ccc(O)c(CC=C(C)C)c4)c(=O)oc3c2C)OC1(C)C :: 112%
CC1COCCN1c1cc(-c2ccnn2C)c2ccnc(-c3ccn[nH]3)c2n1 (stereo not given) + COC1C(OC(N)=O)C(O)C(Oc2ccc3c(O)c(NC(=O)c4ccc(O)c(CC=C(C)C)c4)c(=O)oc3c2C)OC1(C)C :: 47%
COc1cc2cc(C(=O)CCC(=O)O)sc2cc1OC + Cc1cccc(N(C)C(=O)C2C(O)CCN2c2nc(C)cc(C(F)(F)F)c2C#N)c1 :: 105%
CC(C)n1c(=O)n(C)c2cnc3cc(F)c(-c4ccc(OCCCN5CCCCC5)nc4)cc3c21 + Cc1cccc(N(C)C(=O)C2C(O)CCN2c2nc(C)cc(C(F)(F)F)c2C#N)c1 :: 98.3%

# input for lookup
Enquiry: I would be grateful if you could share the reported viability, T/C for CCc1cc2c(N3CCc4c(cc(Cn5ccnc5)cc4-c4cn(C)nc4C(F)(F)F)C3=O)cc(C)nc2c(OC)n1 + COC1C(OC(N)=O)C(O)C(Oc2ccc3c(O)c(NC(=O)c4ccc(O)c(CC=C(C)C)c4)c(=O)oc3c2C)OC1(C)C .
Return: 108%

---

System: 695427-040-R-J1-PDC complex spheroid viability
Test: Anticancer human tumor 695427-040-R-J1-PDC cell line growth inhibition [POLQ];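 also: spheroids exposed to compounds for seven days; 100% = DMSO vehicle control viability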
Settings: second compound 0.0316 µM; first compound 10 µM; hits give low values
Experimental: Multicellular complex tumor spheroid response to Polymerase (POL) inhibitors (novobiocin, ART-558, RP6685) in combination with a variety of drugs and investigational agents in selected tumor cell lines The POL inhibitors (novobiocin, ART-558, and RP6685) were evaluated both individually and in combination with standard of care and investigational anticancer small molecules within a complex spheroid model of solid tumors. . […]
I'd be grateful if you could share measured viability, T/C for these entries.
Answers are plain numbers, in %.

Observe how each entry below is paired with its result.
O=C(c1cc(Cc2n[nH]c(=O)c3ccccc23)ccc1F)N1CCN(C(=O)C2CC2)CC1 + COC1C(OC(N)=O)C(O)C(Oc2ccc3c(O)c(NC(=O)c4ccc(O)c(CC=C(C)C)c4)c(=O)oc3c2C)OC1(C)C :: 97.9
O=C(c1cc(Cc2n[nH]c(=O)c3ccccc23)ccc1F)N1CCN(C(=O)C2CC2)CC1 + Nc1ccc(C#CCN(C(=O)Cc2ncc(C(F)(F)F)cc2C(F)(F)F)c2ccc(F)cc2)nn1 :: 106
CC1COCCN1c1cc(C2(O)CC3CCC(C2)O3)c2cnn(-c3ccn[nH]3)c2n1 (stereo not given) + Nc1ccc(C#CCN(C(=O)Cc2ncc(C(F)(F)F)cc2C(F)(F)F)c2ccc(F)cc2)nn1 :: 60.5
CC1COCCN1c1cc(C2(S(C)(=N)=O)CC2)nc(-c2ccnc3[nH]ccc23)n1 (stereo not given) + Nc1ccc(C#CCN(C(=O)Cc2ncc(C(F)(F)F)cc2C(F)(F)F)c2ccc(F)cc2)nn1 :: 96.2

Enquiry: Which measured viability, T/C value corresponds to O=c1[nH]cc(F)c(=O)[nH]1 + COC1C(OC(N)=O)C(O)C(Oc2ccc3c(O)c(NC(=O)c4ccc(O)c(CC=C(C)C)c4)c(=O)oc3c2C)OC1(C)C ?
Return: 107
